Target: LRRK2 WT (Homo sapiens)
Sequence (Q5S007 970-2527): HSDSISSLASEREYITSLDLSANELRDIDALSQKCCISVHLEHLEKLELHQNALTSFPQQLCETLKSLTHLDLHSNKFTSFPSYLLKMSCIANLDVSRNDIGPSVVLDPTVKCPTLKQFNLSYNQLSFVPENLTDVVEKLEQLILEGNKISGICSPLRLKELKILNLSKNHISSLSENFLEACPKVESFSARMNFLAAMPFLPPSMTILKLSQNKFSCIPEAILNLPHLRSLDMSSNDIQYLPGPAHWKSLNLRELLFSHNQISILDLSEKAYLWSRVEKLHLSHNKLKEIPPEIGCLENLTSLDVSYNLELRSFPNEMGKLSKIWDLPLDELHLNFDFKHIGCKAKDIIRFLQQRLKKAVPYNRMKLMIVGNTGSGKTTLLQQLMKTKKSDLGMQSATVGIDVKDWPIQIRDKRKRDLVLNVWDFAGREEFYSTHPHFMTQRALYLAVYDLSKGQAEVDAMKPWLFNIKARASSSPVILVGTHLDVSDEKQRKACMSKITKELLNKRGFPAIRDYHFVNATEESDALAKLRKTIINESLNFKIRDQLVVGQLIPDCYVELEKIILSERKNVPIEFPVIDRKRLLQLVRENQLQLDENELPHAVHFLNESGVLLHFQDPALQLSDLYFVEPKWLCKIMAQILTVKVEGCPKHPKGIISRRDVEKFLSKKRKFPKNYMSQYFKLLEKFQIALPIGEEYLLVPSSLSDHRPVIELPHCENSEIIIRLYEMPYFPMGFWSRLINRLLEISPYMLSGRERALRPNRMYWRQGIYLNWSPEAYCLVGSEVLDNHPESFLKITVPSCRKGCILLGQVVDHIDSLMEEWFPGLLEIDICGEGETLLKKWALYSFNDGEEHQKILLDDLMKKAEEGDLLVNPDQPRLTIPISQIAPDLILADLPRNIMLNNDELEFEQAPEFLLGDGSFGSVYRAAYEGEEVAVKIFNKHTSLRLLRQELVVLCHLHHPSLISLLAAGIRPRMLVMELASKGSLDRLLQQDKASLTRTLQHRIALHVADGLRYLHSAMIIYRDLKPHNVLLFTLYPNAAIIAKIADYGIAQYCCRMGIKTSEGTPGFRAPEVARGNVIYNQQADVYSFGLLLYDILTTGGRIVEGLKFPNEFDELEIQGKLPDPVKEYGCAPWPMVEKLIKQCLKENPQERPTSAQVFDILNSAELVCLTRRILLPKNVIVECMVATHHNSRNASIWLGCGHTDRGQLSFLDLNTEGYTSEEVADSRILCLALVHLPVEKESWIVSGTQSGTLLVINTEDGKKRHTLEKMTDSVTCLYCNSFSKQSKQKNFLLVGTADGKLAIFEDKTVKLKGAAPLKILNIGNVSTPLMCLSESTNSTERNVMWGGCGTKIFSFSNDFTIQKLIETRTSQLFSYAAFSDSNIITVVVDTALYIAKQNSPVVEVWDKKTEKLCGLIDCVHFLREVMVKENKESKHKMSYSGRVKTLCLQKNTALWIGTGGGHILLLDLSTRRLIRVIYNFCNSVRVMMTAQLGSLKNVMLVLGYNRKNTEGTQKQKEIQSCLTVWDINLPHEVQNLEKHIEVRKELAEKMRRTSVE

molecule	unit-symbol	IC50
Cc1c2c(nn1CC1CCOCC1)OCCCn1nc(Cl)c3cnc(nc31)N2	nM	9.4
CO[C@H]1CC[C@H](n2nc3c(c2C)Nc2ncc4c(Cl)nn(c4n2)CCCO3)CC1	nM	8.5
[2H]C([2H])([2H])c1c2c(nn1[C@H]1CC[C@H](OC)CC1)OCCCn1nc(Cl)c3cnc(nc31)N2	nM	10
Cc1c2c(nn1[C@@H]1CCOC[C@@H]1C)OCCCn1nc(Cl)c3cnc(nc31)N2 (single isomer, unassigned) [Example 24]	nM	14
Cc1c2c(nn1[C@@H]1C[C@H]3CC[C@@H](C1)O3)OCCCn1nc(Cl)c3cnc(nc31)N2	nM	13
Cc1c2c(nn1C1CCOCC1)OCCCn1nc(C(F)(F)F)c3cnc(nc31)N2	nM	23
